Below, each entry is listed alongside its reported TBPS binding Variation Rate.
# Test system: GABAA receptor complex (TBPS binding)
# assay.remarks: TBPS Binding Assay
# Design: species or system Wistar rats
# measurement.context: [35S]TBPS 0.4 nM, GABA 1 μM, rat cerebral cortex membrane, +% inverse agonistic, 0% antagonistic
# Experimental: The TBPS (t-butylbicyclophosphonothionate) binding assay and the preparation of the membrane specimen were done in a similar manner to the method of Biggio, G. et al. [cf. European Journal of Pharmacology, vol. That is, to the cerebral cortex was added a 50-fold volume of an ice-cooled buffer (a 50 mM Tris-citrate buffer containing 100 mM sodium chloride, pH 7.4) and the mixture was homogenized at 0-4° C. and then centrifuged at 20,000 g for 20 minutes. […]
Field: numeric (%). Do not append units.

compound | TBPS binding Variation Rate [%]
CC(C)c1noc(-c2cc3c(-c4ccc(F)cc4)nccc3[nH]c2=O)n1 [Example 228] | -10
O=c1[nH]c2ccnc(-c3ccco3)c2cc1-c1nc(C2CC2)no1 [Example 245] | 13
Cc1noc(-c2cc3c(-c4ccccc4)nccc3[nH]c2=O)n1 [Example 175] | 28

Ask: Field request: TBPS binding Variation Rate | item: CCc1noc(-c2cc3c(-c4ccsc4)nccc3[nH]c2=O)n1 [Example 212]
Reply: 27

Ask: Field request: TBPS binding Variation Rate | item: Cc1ccc(-c2nccc3[nH]c(=O)c(-c4noc(C5CC5)n4)cc23)cc1 [Example 58]
Reply: -15

Numbers sourced from patent US6172079A.
